Task for the reader: assign each of the following compounds its reported inhibition at 10 µM.
- SYSTEM: STING (Homo sapiens, UniProt Q86WV6, G230A/H232R/R293Q/R71H)
- Construct: host or cells: THP-1 / THP1-Dual / THP1-Lucia ISG cells
- Sequence (Q86WV6 whole entry R71H/G230A/H232R/R293Q): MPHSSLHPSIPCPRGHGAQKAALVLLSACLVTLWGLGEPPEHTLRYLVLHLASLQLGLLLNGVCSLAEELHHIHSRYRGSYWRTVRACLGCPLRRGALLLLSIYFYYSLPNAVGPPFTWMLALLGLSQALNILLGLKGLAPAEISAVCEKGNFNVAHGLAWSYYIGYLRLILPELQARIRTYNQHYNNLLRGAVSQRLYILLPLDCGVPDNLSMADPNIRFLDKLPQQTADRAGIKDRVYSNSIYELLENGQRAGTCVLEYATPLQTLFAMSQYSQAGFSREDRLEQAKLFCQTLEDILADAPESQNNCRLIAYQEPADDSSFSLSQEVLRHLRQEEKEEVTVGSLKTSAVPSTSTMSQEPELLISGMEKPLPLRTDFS
- METHOD_SUMMARY: STING pathway activity in THP1-Dual/THP-1 cells upon cGAMP or MSA-2 stimulation (luciferase/interferon readout)
- Format: cell-based
- TEST_PARAMETERS: 10 μM compound; cGAMP (100 μM) or MSA-2 (10 μM) stimulation; THP-1 cells

Consider the compound `CC1(C)C(=O)N(Cc2c(Cl)cccc2Oc2cc(F)cc(F)c2)c2cc(C(F)(F)F)ccc21` tested on STING (Homo sapiens, UniProt Q86WV6, G230A/H232R/R293Q/R71H); state its inhibition at 10 µM.
< 50%

Consider the compound Cc1nn(C)c(CN2C(=O)C(C)[C@@H](C)c3ccc(C(=O)NCc4cc5ccccc5[nH]4)cc32)c1Br (stereo partly shown) tested on STING (Homo sapiens, UniProt Q86WV6, G230A/H232R/R293Q/R71H); state its inhibition at 10 µM.
< 50%

Consider the compound Cc1nn(C)c(CN2C(=O)C(C)[C@@H](C)c3ccc(C(=O)NCc4cc5ccccc5[nH]4)cc32)c1C (stereo partly shown) tested on STING (Homo sapiens, UniProt Q86WV6, G230A/H232R/R293Q/R71H); state its inhibition at 10 µM.
< 50%

Consider the compound `CC1(C)C(=O)N(Cc2c(F)cccc2C(N)=O)c2cc(C(=O)NCc3c(F)cc(F)cc3F)ccc21` tested on STING (Homo sapiens, UniProt Q86WV6, G230A/H232R/R293Q/R71H); state its inhibition at 10 µM.
< 50%

Consider the compound `CC1(C)C(=O)N(Cc2c(Oc3cc(F)cc(F)c3)cccc2C(F)(F)F)c2ccc(C(F)(F)F)cc21` tested on STING (Homo sapiens, UniProt Q86WV6, G230A/H232R/R293Q/R71H); state its inhibition at 10 µM.
< 50%

Consider the compound `Cc1nn(C)c(CN2C(=O)C(C)(C)c3ccc(C(=O)NCc4cc5ccccc5[nH]4)cc32)c1Br` tested on STING (Homo sapiens, UniProt Q86WV6, G230A/H232R/R293Q/R71H); state its inhibition at 10 µM.
> 50%

Consider the compound `CC1(C)C(=O)N(Cc2c(F)cccc2C(F)(F)F)c2cc(C(=O)NCc3cc4ccccc4[nH]3)ccc21` tested on STING (Homo sapiens, UniProt Q86WV6, G230A/H232R/R293Q/R71H); state its inhibition at 10 µM.
> 50%

Consider the compound `CC1(C)C(=O)N(Cc2c(F)cc(F)cc2F)c2cc(C(=O)NCc3cc4ccccc4[nH]3)ccc21` tested on STING (Homo sapiens, UniProt Q86WV6, G230A/H232R/R293Q/R71H); state its inhibition at 10 µM.
> 50%

Consider the compound `CC1(C)C(=O)N(Cc2c(Oc3cc(F)cc(F)c3)cccc2C(F)(F)F)c2cc(C(F)(F)F)ccc21` tested on STING (Homo sapiens, UniProt Q86WV6, G230A/H232R/R293Q/R71H); state its inhibition at 10 µM.
< 50%

Consider the compound `CC1(C)C(=O)N(Cc2c(Oc3cc(F)cc(F)c3)cccc2C(F)(F)F)c2ccc(C#N)cc21` tested on STING (Homo sapiens, UniProt Q86WV6, G230A/H232R/R293Q/R71H); state its inhibition at 10 µM.
< 50%

Consider the compound `CC1(C)C(=O)N(Cc2c(F)cccc2C(F)(F)F)c2cc(C(=O)NCc3c(F)cc(F)cc3F)ccc21` tested on STING (Homo sapiens, UniProt Q86WV6, G230A/H232R/R293Q/R71H); state its inhibition at 10 µM.
> 50%

Consider the compound CC1C(=O)N(Cc2c(F)cccc2C(F)(F)F)c2cc(C(=O)NCc3cc4ccccc4[nH]3)ccc2[C@@H]1C (stereo partly shown) tested on STING (Homo sapiens, UniProt Q86WV6, G230A/H232R/R293Q/R71H); state its inhibition at 10 µM.
< 50%

Consider the compound `Cc1nn(C)c(CN2C(=O)C(C)(C)c3ccc(C(=O)NCc4cc5ccccc5[nH]4)cc32)c1C` tested on STING (Homo sapiens, UniProt Q86WV6, G230A/H232R/R293Q/R71H); state its inhibition at 10 µM.
< 50%

All figures here come from patent US20250170120A1.
